Hey, just so you know, these numbers are from patent US20240343803A1.

AUC % to COM701-hIgG1 for assorted binders
# MEASURED_ON: T1, cynomolgus monkey PVRIG on FlpinCHO-cyno PVRIG cells (cynomolgus monkey, UniProt A0A2K5WVV8 41-322)
# T1 construct: whole, on cells
# T1 sequence: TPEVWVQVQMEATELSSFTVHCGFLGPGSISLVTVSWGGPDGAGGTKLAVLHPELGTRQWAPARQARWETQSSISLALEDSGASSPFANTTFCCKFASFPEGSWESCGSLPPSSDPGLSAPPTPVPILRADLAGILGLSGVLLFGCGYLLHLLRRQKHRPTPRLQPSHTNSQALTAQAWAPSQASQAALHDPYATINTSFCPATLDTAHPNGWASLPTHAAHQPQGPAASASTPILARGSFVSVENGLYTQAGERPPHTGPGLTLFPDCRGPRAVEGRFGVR
# PROTOCOL_TEXT: FACS, FlpinCHO-cyno PVRIG cells
MEASURED_QUANTITY: AUC % to COM701-hIgG1 (%)

>  <BINDER>
PVRIG-A105-H1 (Fc fusion, humanized variant of PVRIG-A105; also called A105.VH1; not shown: constant part not restated for the humanized forms; parents are VHH-hinge-CH2-CH3 of human IgG1; detected by anti-human) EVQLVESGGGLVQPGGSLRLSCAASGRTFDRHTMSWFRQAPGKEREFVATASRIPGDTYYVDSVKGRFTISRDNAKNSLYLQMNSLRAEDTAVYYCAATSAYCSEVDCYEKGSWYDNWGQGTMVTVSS

>  <TEST_RESULT>
81.3

$$$$
>  <BINDER>
PVRIG-A50-H2a (Fc fusion, humanized variant of PVRIG-A50; also called A50.VH2a; not shown: constant part not restated for the humanized forms; parents are VHH-hinge-CH2-CH3 of human IgG1; detected by anti-human) EVQLVESGGGLVQPGGSLRLSCAASGFTFSYYDMSWVRQAPGKGLEWVSTINSNAGRTSYVDSVKGRFTISRDNTKNTLYLQMNSLRAEDTAVYYCVEGDPHNFGLESLSLRDFGSWGQGTMVTVSS

>  <TEST_RESULT>
42.4

$$$$
>  <BINDER>
PVRIG-A118 (Fc fusion, heavy chain antibody VHH-hinge-CH2-CH3, human IgG1 constant part; not shown: human IgG1 hinge-CH2-CH3) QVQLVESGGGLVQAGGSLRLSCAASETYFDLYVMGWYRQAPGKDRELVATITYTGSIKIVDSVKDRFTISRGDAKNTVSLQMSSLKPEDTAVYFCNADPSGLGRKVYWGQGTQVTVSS

>  <TEST_RESULT>
62.4

$$$$
>  <BINDER>
PVRIG-A105-H4 (Fc fusion, humanized variant of PVRIG-A105; also called A105.VH4; not shown: constant part not restated for the humanized forms; parents are VHH-hinge-CH2-CH3 of human IgG1; detected by anti-human) EVQLVESGGGLVQPGGSLRLSCAASGRTFDRHTMTWFRQAPGKEREFVATASRIPGDTYYSHSVKGRFTISRDNAKNSLYLQMNSLRAEDTAVYYCAATSAYCSEVDCYEKGSWYDNWGQGTMVTVSS

>  <TEST_RESULT>
80.3

$$$$
>  <BINDER>
PVRIG-A118-H3 (Fc fusion, humanized variant of PVRIG-A118; also called A118.VH3; not shown: constant part not restated for the humanized forms; parents are VHH-hinge-CH2-CH3 of human IgG1; detected by anti-human) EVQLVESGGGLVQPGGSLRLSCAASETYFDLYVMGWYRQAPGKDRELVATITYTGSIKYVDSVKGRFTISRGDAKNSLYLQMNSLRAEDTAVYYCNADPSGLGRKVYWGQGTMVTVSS

>  <TEST_RESULT>
21

$$$$
